system: PIK3CA(M1043I); settings: Compound Concentration (nM):1000;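 note: KINOMEscan scanMAX binding as percent activity remaining versus control; lower means stronger binding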
Catalogue of Percent Control values
Measured quantity: Percent Control (%)

- Compound: "COc1cc(N2CCN(C(C)C)CC2)ccc1Nc1nc(Nc2ccc(F)cc2C(=O)NC[C@@H](O)CO)c2cc[nH]c2n1 [GSK1392956A]"
  Assayed system: "PIK3CA(M1043I)"
  Measured quantity: "Percent Control"
  Quantitative result: 97
- Compound: "NS(=O)(=O)c1ccc(Nc2ncc(-c3ccccc3)o2)cc1 [GW572399X]"
  Assayed system: "PIK3CA(M1043I)"
  Measured quantity: "Percent Control"
  Quantitative result: 93
- Compound: "NS(=O)(=O)c1ccc(N/N=C2\\C(=O)Nc3ccc(Cl)cc32)cc1 [GW280670X]"
  Assayed system: "PIK3CA(M1043I)"
  Measured quantity: "Percent Control"
  Quantitative result: 100
- Compound: "Cl.O=C(Nc1ccc(Oc2ccc3[nH]c(NC(=O)c4ccccc4)nc3c2)cc1)Nc1cc(C(F)(F)F)ccc1F [GW709042A]"
  Assayed system: "PIK3CA(M1043I)"
  Measured quantity: "Percent Control"
  Quantitative result: 100
- Compound: "Cl.c1ccc(Cc2nc3ccc(Nc4ncnc5ccccc45)cc3[nH]2)cc1 [GR269666A]"
  Assayed system: "PIK3CA(M1043I)"
  Measured quantity: "Percent Control"
  Quantitative result: 100
- Compound: "COc1cc(/C=N/Nc2ncnc3[nH]ncc23)ccc1O [GW578748X]"
  Assayed system: "PIK3CA(M1043I)"
  Measured quantity: "Percent Control"
  Quantitative result: 43
- Compound: "COc1ccccc1-c1cc(/C=C2\\C(=O)Nc3ncc(Br)cc32)cc(Br)c1O [GW442130X]"
  Assayed system: "PIK3CA(M1043I)"
  Measured quantity: "Percent Control"
  Quantitative result: 60
- Compound: "Cl.O=C(O[C@H]1CN[C@H](C#Cc2cc3ncnc(Nc4ccc5c(cnn5Cc5ccccc5)c4)c3s2)C1)N1CCOCC1 [GSK200398A]"
  Assayed system: "PIK3CA(M1043I)"
  Measured quantity: "Percent Control"
  Quantitative result: 100
- Compound: "COc1ccc2cc(-c3c(-c4ccncc4)nc(-c4ccc(S(C)(=O)=O)cc4C)n3C)ccc2c1 [SB-633825]"
  Assayed system: "PIK3CA(M1043I)"
  Measured quantity: "Percent Control"
  Quantitative result: 83
- Compound: "O=C(Nc1n[nH]c2nc(-c3ccc(O)cc3)c(Br)cc12)C1CC1 [SB-725317]"
  Assayed system: "PIK3CA(M1043I)"
  Measured quantity: "Percent Control"
  Quantitative result: 100
- Compound: "CN(C)CCNC(=O)Nc1ccc(N(C)c2ccnc(Nc3ccc(CS(C)(=O)=O)cc3)n2)cc1.Cl [GW830900A]"
  Assayed system: "PIK3CA(M1043I)"
  Measured quantity: "Percent Control"
  Quantitative result: 92
- Compound: "Cl.O=S1CCN(Cc2ccc(-c3ccc4ncnc(Nc5ccc(OCc6ccccc6)c(F)c5)c4c3)o2)CC1 [GW576924A]"
  Assayed system: "PIK3CA(M1043I)"
  Measured quantity: "Percent Control"
  Quantitative result: 88
- Compound: "CCc1ccc(Oc2nccc(-c3c(-c4ccc(F)cc4)ncn3C3CCNCC3)n2)cc1 [SB-242719]"
  Assayed system: "PIK3CA(M1043I)"
  Measured quantity: "Percent Control"
  Quantitative result: 100
- Compound: "CCS(=O)(=O)c1ccc(OC)c(Nc2ncc(-c3cccc(OC)c3)o2)c1 [GW580509X]"
  Assayed system: "PIK3CA(M1043I)"
  Measured quantity: "Percent Control"
  Quantitative result: 100
